- targetOrSystem: human A3 receptors (hA3) (Homo sapiens)
- Construct: expressed in transfected cells; host or cells: HEK-293
- Sequence (P0DMS8 whole entry): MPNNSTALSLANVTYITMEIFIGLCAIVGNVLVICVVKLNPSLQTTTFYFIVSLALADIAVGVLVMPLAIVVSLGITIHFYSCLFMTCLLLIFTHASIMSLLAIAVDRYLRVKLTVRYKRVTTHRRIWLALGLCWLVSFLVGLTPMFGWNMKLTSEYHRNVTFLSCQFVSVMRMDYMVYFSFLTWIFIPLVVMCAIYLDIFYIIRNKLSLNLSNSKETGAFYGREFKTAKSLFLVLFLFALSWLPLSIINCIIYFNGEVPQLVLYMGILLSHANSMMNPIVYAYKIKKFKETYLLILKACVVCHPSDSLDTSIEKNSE
- experimentDescription: Displacement of [125I]AB-MECA binding at human A3 receptors expressed in HEK-293 cells (Table 4)
reportedEndpoint: Ki (µM)

(1) CCCn1c(=O)c2[nH]c(-c3ccc(OCC(=O)NN4C(=O)CCCC4=O)cc3)nc2n(CCC)c1=O
(2) CCCn1c(=O)c2[nH]c(-c3ccc(OCC(=O)NNC(=O)[C@H](CCC(=O)O)NC(=O)C(F)(F)F)cc3)nc2n(CCC)c1=O
Qu. Given 1 and given 2 , which shows the smaller recorded Ki? Please reply using the label of the selected record.
Ans. 1

(I) CCCn1c(=O)c2[nH]c(-c3ccc(OCC(=O)NN4C(=O)CC(O)CC4=O)cc3)nc2n(CCC)c1=O
(II) CCCn1c(=O)c2[nH]c(-c3ccc(OCC(=O)NN4C(=O)C[C@H](NC(=O)C(F)(F)F)C4=O)cc3)nc2n(CCC)c1=O
Qu. Given the listed items, does I or II have the lesser reported Ki? The response must carry the label of the picked entry.
Ans. I
(I: 0.29 µM, II: 1.56 µM)

(I) CCCn1c(=O)c2[nH]c(-c3ccc(OCC(=O)NNC(=O)C4=C(C(=O)O)CCCC4)cc3)nc2n(CCC)c1=O
(II) CCCn1c(=O)c2[nH]c(-c3ccc(OCC(=O)NN4C(=O)CCC(c5ccccc5)C4=O)cc3)nc2n(CCC)c1=O (stereo not shown)
Qu. Which has the higher Ki, I or II ? Please respond with the label that marks your chosen entry.
Ans. I
